target: T1, mesothelin-Fc recombinant protein (human, UniProt Q13421 296-580, limits assumed); experiment: FACS of T cells expressing the scFv CAR, stained with Mesothelin-Fc + PE-anti-IgG-Fc; Mock T cells of the same block: 0.97
T1 construct: also called mesothelin-Fc protein; human Mesothelin-Fc; not shown: Fc part
T1 sequence (Q13421 other isoform, or with tags, fused parts or gaps limits assumed): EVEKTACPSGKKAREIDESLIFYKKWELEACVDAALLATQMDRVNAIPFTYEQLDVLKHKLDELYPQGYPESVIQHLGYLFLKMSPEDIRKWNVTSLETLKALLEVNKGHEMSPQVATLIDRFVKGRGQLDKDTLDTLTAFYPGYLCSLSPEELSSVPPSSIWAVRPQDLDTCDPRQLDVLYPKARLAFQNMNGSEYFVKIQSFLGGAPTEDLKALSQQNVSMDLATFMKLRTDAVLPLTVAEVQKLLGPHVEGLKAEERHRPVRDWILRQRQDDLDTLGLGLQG
quantity-name: number in the Mesothelin-Fc positive gate (percent of cells, unit not given)

Below, 3 binders whose answers are already recorded.
binder	experimental-value
anti-mesothelin scFv-M24 (scFv) QPVLTQPPSASGTPGQRVTISCSGSSSNIGSNYVYWYQQFPGTAPKLLIYMNNQRPSGVPDRFSGSKSGTSASLAISGLRSEDEADYYCAARDDSLSGYVTFGGGTKLTVLGGGGSGGGGSGGGGSEVHLVESGGGLVQPGGSLRLSCAASGFTFSSYAMSWVRQAPGKGLEWVSAISGSGGSTYYADSVKGRFTISRDNSKNTLYLQMNSLKTEDTAVYYCTRGVATFDYWGQGTLVTVSS	93.6
anti-mesothelin scFv-M28 (scFv) QSALTQPPSASGSPGQSVTISCSGTSSDVGGYNFVSWYQHHPGKAPKLMIYEVSKRPSGVPDRFSGSKSGNTASLTVSGLQAEDEADYYCSSYAGRNNPYLFGTGTKLTVLGGGGSGGGGSGGGGSQLQLQESGAEVKKPGSSVKVSCKASGGTFSSYAISWVRQAPGQGLEWMGGIIPIFGTANYAQKFQGRVTITADESTSTAYMELSSLRSEDTAVYYCARDLGGYSYGHGLDYWGQGTLVTVSS	82.8
anti-mesothelin scFv-M32 (scFv) DIRMTQSPSSLSASVGDRVTVTCQASEDINNSLNWYQQKPGKAPQLLIYDASDLETGVPSRFSGRGSGRDFTLTISSLQPEDFATYYCQQLNSYPLTFGGGTKLEIKGGGGSGGGGSGGGGSQVQLVQSGAEVKKPGASVKVSCKASGFTFIGYYLHWVRQAPGQGLEWMGIINPSGGRTSMAQKFQGRVSMTTDTSTGTVYLDLGRLGSDDTAVYYCARADNWNAGSMDVWGNGTTVTVSS	84.1

// below: number in the Mesothelin-Fc positive gate (percent of cells, unit not given) requested for another binder
In: Read off the recorded number in the Mesothelin-Fc positive gate (percent of cells, unit not given) for anti-mesothelin scFv-M37 (scFv) DIVMTQTPSSLSASVGDRVTITCRASQGISNYLAWFQQKPGKAPKPLIYAASSLQSGVPSKFSGSGSGTDFTLTISNLQPEDFATYICQQYSSYPITFGQGTRLEIKGGGGSGGGGSGGGGSQLQLQESGPGLVKPSETLSLTCAVSGGSISPYYWTWIRQSPGKAMEWMGYIHYSGRTNYNPSLESRATFSVDTSKNQISLKLNSVTAADTAVYYCTKVGDPGLFDYWGPGTLVTVSS
Out: 74.2
